# target-desc: T1, IL-12 (Human IL12 (His Tag)), Sino Biological Cat. No. CT-050-H08H-20 (human, UniProt P29460 23-328; P29459 23-219)
# T1 construct: Bought His-tagged p35/p40 heterodimer
# T1 sequence (looked up) 1: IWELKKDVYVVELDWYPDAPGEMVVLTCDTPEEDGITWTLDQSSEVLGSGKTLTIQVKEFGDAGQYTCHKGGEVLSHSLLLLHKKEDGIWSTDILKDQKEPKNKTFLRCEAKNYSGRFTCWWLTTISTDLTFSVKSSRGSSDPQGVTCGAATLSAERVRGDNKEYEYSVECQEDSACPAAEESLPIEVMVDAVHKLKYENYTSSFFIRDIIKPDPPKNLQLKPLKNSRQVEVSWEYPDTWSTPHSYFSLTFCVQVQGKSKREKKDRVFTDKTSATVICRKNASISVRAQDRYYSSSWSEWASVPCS
# T1 sequence (looked up) 2: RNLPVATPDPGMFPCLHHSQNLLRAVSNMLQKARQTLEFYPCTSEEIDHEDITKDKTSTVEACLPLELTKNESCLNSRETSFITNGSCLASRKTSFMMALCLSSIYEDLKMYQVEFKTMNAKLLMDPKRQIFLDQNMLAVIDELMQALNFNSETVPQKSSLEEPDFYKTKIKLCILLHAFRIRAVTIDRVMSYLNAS
# assay-explanation: FACS competition, IL-12-His 20 nM on 293T-IL-12RB1&IL-23R cells, antibody 0.37 µg/mL
// values below are reported MFI
Give the figure by itself; no unit, no explanation.

>  <binder>
H5L12 (antibody, human IgG1, kappa, V domains shown, IgG1/kappa) VH: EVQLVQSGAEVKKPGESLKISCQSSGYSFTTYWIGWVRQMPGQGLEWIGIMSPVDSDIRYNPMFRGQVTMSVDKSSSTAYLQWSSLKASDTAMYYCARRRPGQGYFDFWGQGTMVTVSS VL: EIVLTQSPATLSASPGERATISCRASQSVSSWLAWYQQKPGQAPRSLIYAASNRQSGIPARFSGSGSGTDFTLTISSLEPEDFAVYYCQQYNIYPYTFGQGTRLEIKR

>  <MFI>
86.6

$$$$
>  <binder>
H5L9 (antibody, human IgG1, kappa, V domains shown, Humanized anti-human IL-12/IL-23 p40 antibody; IgG1 (P01857) / kappa (P01834) constant regions) VH: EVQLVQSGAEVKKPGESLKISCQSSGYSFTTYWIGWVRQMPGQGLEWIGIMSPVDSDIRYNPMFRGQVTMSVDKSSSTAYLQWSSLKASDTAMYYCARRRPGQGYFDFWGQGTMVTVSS VL: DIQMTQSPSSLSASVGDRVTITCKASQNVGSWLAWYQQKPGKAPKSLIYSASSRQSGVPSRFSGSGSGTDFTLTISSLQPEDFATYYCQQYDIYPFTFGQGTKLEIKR

>  <MFI>
159

$$$$

Read the next record carefully.
Problem: Sample H5L11 (antibody, human IgG1, kappa, V domains shown, IgG1/kappa) VH: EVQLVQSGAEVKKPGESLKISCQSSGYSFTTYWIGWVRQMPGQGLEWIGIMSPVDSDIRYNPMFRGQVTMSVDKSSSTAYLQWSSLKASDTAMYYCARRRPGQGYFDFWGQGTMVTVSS VL: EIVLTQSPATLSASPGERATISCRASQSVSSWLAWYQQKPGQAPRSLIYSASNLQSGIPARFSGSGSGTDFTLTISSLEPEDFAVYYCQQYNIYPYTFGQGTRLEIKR — what was its MFI?
Solution: 103
